experiment: M. tuberculosis H37Rv growth inhibitors, H37Rv strain (AID 1626); details: hits give high values, concentration not given here;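 note: bacteria incubated seven days before Alamar blue readout; 0% = bacteria only wells and 100% = bacteria with antibiotic wells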
Out of some 220,000 compounds screened, about 2,000 (0.91%) were called active. Inconclusive results (about 2%) are left out. Only a sample is shown. Entries with a potency or affinity are not part of this list.
Field: inhibition. Provide a value for each of the molecules that follow.
Numbers only here, please. The scale is %.

Exercise: # input molecule: C#CCn1c(-c2ccccc2)ccc(C#N)c1=O ; wanted: its inhibition
Key: 8.84

Exercise: # input molecule: Cc1ccc(NC(=O)C(=O)NCc2ccc(/C=C(/C#N)C(=O)NCc3cccnc3)o2)cc1C ; wanted: its inhibition
Key: 0.05

Exercise: # input molecule: CCOC(=O)c1csc(COc2ccc(OC)cc2)n1 ; wanted: its inhibition
Key: -4.8

Exercise: # input molecule: O=C(O)c1ccc(CN2CCCCC2)o1 ; wanted: its inhibition
Key: -8.71

Exercise: # input molecule: O=C(Nc1ncc(Cc2cccc(Cl)c2)s1)c1ccc([N+](=O)[O-])cc1 ; wanted: its inhibition
Key: -4.66

Exercise: # input molecule: CCn1c(-c2ccccc2)ccc(C#N)c1=O ; wanted: its inhibition
Key: -9.1

Exercise: # input molecule: O=C(COc1ccc(Cl)cc1)NCc1ccncc1 ; wanted: its inhibition
Key: 0.93

Exercise: # input molecule: COc1ccc(CN2CN=C(Nc3nc4ccccc4s3)NC2)cc1 ; wanted: its inhibition
Key: -0.93

Exercise: # input molecule: O=C(Nc1ncc(Cc2ccccc2)s1)C1COc2ccccc2O1 (centres undefined) ; wanted: its inhibition
Key: 13.8

Exercise: # input molecule: O=C(COc1ccc(-n2ccnc2)cc1)Nc1cccc(Cl)c1 ; wanted: its inhibition
Key: 3.18

Exercise: # input molecule: CC(C)C(=O)Nc1ncc(Cc2ccccc2Cl)s1 ; wanted: its inhibition
Key: -0.08

Exercise: # input molecule: Cc1ccc2[nH]c(=O)c(CN(Cc3ccco3)S(=O)(=O)c3c(C)ccc4nsnc34)cc2c1 ; wanted: its inhibition
Key: 1.42

Exercise: # input molecule: CC(=O)c1ccc(NC(=O)COc2ccc3c(c2)OCO3)cc1 ; wanted: its inhibition
Key: 14

Exercise: # input molecule: Cc1ccc(C(=O)NCCCN2CCOCC2)cc1 ; wanted: its inhibition
Key: 3.65

Exercise: # input molecule: Cc1ccc(C(=O)Nc2ncc(Cc3ccccc3)s2)o1 ; wanted: its inhibition
Key: -9.94

Exercise: # input molecule: Cc1ccccc1NS(=O)(=O)c1cc(C(=O)NCc2ccco2)ccc1C ; wanted: its inhibition
Key: -1.94

Exercise: # input molecule: CCOC(=O)c1sc(NC(=O)CNCc2cccnc2)c(C(=O)OCC)c1C ; wanted: its inhibition
Key: 0.97

Exercise: # input molecule: Cn1c(SC2=CS(=O)(=O)c3ccccc32)nc2ccccc21 ; wanted: its inhibition
Key: 54.9

Exercise: # input molecule: CCOC(=O)c1sc(NC(=O)CCN2C(=O)c3ccccc3C2=O)c(C(=O)OCC)c1C ; wanted: its inhibition
Key: -2.12

Exercise: # input molecule: CC(=O)c1csc(COc2ccccc2)n1 ; wanted: its inhibition
Key: -10.3

Exercise: # input molecule: COc1cccc(-c2nn(-c3ccccc3)cc2CN(C)Cc2ccon2)c1 ; wanted: its inhibition
Key: -3.56

Exercise: # input molecule: COc1cc(NC(=O)COc2ccc(-n3ccnc3)cc2)cc(OC)c1 ; wanted: its inhibition
Key: 54.1

Exercise: # input molecule: Nc1ccc(C#Cc2c(-c3ccsc3)oc3ccc(N4CCOCC4)cc23)cc1 ; wanted: its inhibition
Key: 61.1

Exercise: # input molecule: O=C(COc1ccc2ccccc2c1)Nc1ccc(Cc2ccncc2)cc1 ; wanted: its inhibition
Key: 11.6

###

test: M. tuberculosis H37Rv growth inhibitors, H37Rv strain (AID 1626); details: hits give high values, concentration not given here;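 note: bacteria incubated seven days before Alamar blue readout; 0% = bacteria only wells and 100% = bacteria with antibiotic wells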
Hit rate of the full screen: of about 220,000 compounds, about 2,000 (0.91%) were called active. Inconclusive results (about 2%) are left out. A selection follows. Potency and affinity values are given separately.
Field: inhibition. Provide a value for each of the compounds that follow.
Numbers only here, please. The scale is %.

Exercise: # input compound: O=C(NCc1cccc(Cl)c1)c1cnn2c1NC(c1ccco1)CC2C(F)(F)F (stereo not drawn) ; wanted: its inhibition
Key: 6.69

Exercise: # input compound: O=C(Nc1ccc2nc(-c3ccccc3)oc2c1)c1ccco1 ; wanted: its inhibition
Key: -2.22

Exercise: # input compound: CC1=CC(=O)N(c2ccc(C)cc2)C1c1ccc(Cl)cc1 (stereo not drawn) ; wanted: its inhibition
Key: 11.2

Exercise: # input compound: O=C(Nc1ccccc1)N1CCN(c2nc3ccccc3s2)CC1 ; wanted: its inhibition
Key: -10

Exercise: # input compound: NC(=O)N/N=C/c1coc2ccc(O)cc2c1=O ; wanted: its inhibition
Key: -3.42

Exercise: # input compound: O=C(CCC1CCCCC1)NCCN1C2=NC[C@@H](Cc3ccccc3)N2C[C@H]1Cc1ccc(O)cc1 ; wanted: its inhibition
Key: 39.5

Exercise: # input compound: NC1=NC[C@@H](Cc2ccc(O)cc2)N1CCC12CC3CC(CC(C3)C1)C2 ; wanted: its inhibition
Key: 20.2

Exercise: # input compound: O=C(/C=C/c1ccc2c(c1)OCO2)Nc1cccnc1 ; wanted: its inhibition
Key: 8.75

Exercise: # input compound: O=C(Nc1ccc(-c2nc3cc(Cl)ccc3c(=O)o2)cc1)c1ccco1 ; wanted: its inhibition
Key: 9.67

Exercise: # input compound: COc1ccc(C[C@H]2CN3C(=NC[C@@H]3C)N2CCNC(=O)CCC2CCCCC2)cc1 ; wanted: its inhibition
Key: -3.39

Exercise: # input compound: Cc1ccc(/C=N/NC(=O)CCCOc2ccc(Cl)cc2Cl)cc1[N+](=O)[O-] ; wanted: its inhibition
Key: -5.05

Exercise: # input compound: Cc1cccc(OCC(=O)Nc2cccc(-c3nnc(-c4ccccc4)o3)c2)c1C ; wanted: its inhibition
Key: 3.74

Exercise: # input compound: O=C1[C@@H]2[C@H](C(=O)N1Cc1cccnc1)[C@H]1C=C[C@@H]2C1 ; wanted: its inhibition
Key: 4

Exercise: # input compound: C=CCNC(=O)NC(=O)COC(=O)[C@H](C)NS(=O)(=O)c1c(C)c(C)cc(C)c1C ; wanted: its inhibition
Key: 0.16

Exercise: # input compound: CNc1ccccc1C(C)(C)c1cc(-c2cccc(OC)c2)no1 ; wanted: its inhibition
Key: 3.34

Exercise: # input compound: CCC(=O)Nc1cccc(C2=NOC3(C2)C[C@@H](C(N)=O)N(C(=O)C2(C)CC2)C3)c1 (stereo partly drawn) ; wanted: its inhibition
Key: -7.53

Exercise: # input compound: CCCN1C(=O)C(O)(CC(=O)c2cccc(OC)c2)c2ccccc21 (stereo not drawn) ; wanted: its inhibition
Key: -1.3

Exercise: # input compound: CCOc1ccccc1NC(=O)CN1C(=O)CSC(C)C1=O (stereo not drawn) ; wanted: its inhibition
Key: 2.75

Exercise: # input compound: O=C(O)CCn1cc(/C=C\C(=O)c2ccc(Cl)cc2)c(-c2cccc(Br)c2)n1 ; wanted: its inhibition
Key: -1.2

Exercise: # input compound: O=C(NCc1ccco1)c1cc2n(n1)C(C(F)(F)F)CC(c1ccc(Br)cc1)N2 (stereo not drawn) ; wanted: its inhibition
Key: 74.2

Exercise: # input compound: O=C(NCc1ccccn1)c1ccc(Cl)c(S(=O)(=O)Nc2ccccc2C(=O)NCc2ccccn2)c1 ; wanted: its inhibition
Key: -4.28

Exercise: # input compound: Cc1c(CNC(=O)c2cnn3c2NC(c2ccccc2)CC3C(F)(F)F)cnn1C (stereo not drawn) ; wanted: its inhibition
Key: -9.25

Exercise: # input compound: CN1CC(=O)N(CC(=O)Nc2ccc(F)cc2)c2ccccc2C1=O ; wanted: its inhibition
Key: -5.02

Exercise: # input compound: CCNC(=O)/C=C1\NC(C)(C)Cc2c1ccc1ccccc21 ; wanted: its inhibition
Key: -3.91

Exercise: # input compound: CCOC(=O)N1CCN(C(=O)CSCC(=O)Nc2nc(-c3ccc(Cl)s3)cs2)CC1 ; wanted: its inhibition
Key: 16.6

Exercise: # input compound: O=C(NCC1CCCCC1)c1cc([N+](=O)[O-])ccc1N1CCOCC1 ; wanted: its inhibition
Key: 6.09

Exercise: # input compound: O=C(Nc1ccc(Br)cc1)C1CCCN(S(=O)(=O)c2cccnc2)C1 (stereo not drawn) ; wanted: its inhibition
Key: -3.26

Exercise: # input compound: COc1cc(S(=O)(=O)N2CCCCC2)ccc1NC(=O)Cc1ccccc1 ; wanted: its inhibition
Key: -1.81

Exercise: # input compound: O=C(Nc1ccc(F)cc1)N1CCN(c2nc3ccccc3s2)CC1 ; wanted: its inhibition
Key: 6.46

Exercise: # input compound: NC1=NC[C@H](Cc2ccccc2)N1CC1CCCCC1 ; wanted: its inhibition
Key: -8.5

Exercise: # input compound: CCCc1cc(=O)oc2c(C)c(OCC(=O)c3ccc(N4CCCC4)cc3)ccc12 ; wanted: its inhibition
Key: 15.8

Exercise: # input compound: CCCn1cc(NC(=O)c2cc3n(n2)C(C(F)(F)F)CC(c2ccccc2)N3)cn1 (stereo not drawn) ; wanted: its inhibition
Key: 0.85

Exercise: # input compound: N#Cc1c(/N=C/C=C/c2ccccc2)sc2c1CCCC2 ; wanted: its inhibition
Key: -4.34

Exercise: # input compound: CCOc1ccc(-n2c(O)c(C=Nc3ccc(N(CC)CC)cc3)c(=O)[nH]c2=O)cc1 ; wanted: its inhibition
Key: -0.69

Exercise: # input compound: COc1cccc(CNC(=O)Cn2nc(-c3ccc(Cl)cc3)ccc2=O)c1 ; wanted: its inhibition
Key: 4.51

Exercise: # input compound: CCOc1ccc(-n2c(O)c(C=Nc3ccc(NC(C)=O)cc3)c(=O)[nH]c2=O)cc1 ; wanted: its inhibition
Key: 4.04

Exercise: # input compound: Cc1ccccc1C(=O)Nc1ccc(C(=O)N/N=C/c2ccc(O)c(Br)c2)cc1 ; wanted: its inhibition
Key: 6.55

Exercise: # input compound: O=C(COc1nc2ccccc2nc1N1CCOCC1)NC1CCCCC1 ; wanted: its inhibition
Key: 5.49

Exercise: # input compound: O=C(CO/N=C/c1ccccc1OC(F)F)NCc1ccco1 ; wanted: its inhibition
Key: -2.9

Exercise: # input compound: CCc1ccc(NC(=O)c2ccccc2Br)cc1 ; wanted: its inhibition
Key: 6.96

Exercise: # input compound: COc1cccc(Oc2coc3cc(OC(=O)N4CCOCC4)ccc3c2=O)c1 ; wanted: its inhibition
Key: -2.14

Exercise: # input compound: Cc1nc(-c2ccccc2)sc1C1(C)CC(c2ccc(C#N)cc2)=NO1 (stereo not drawn) ; wanted: its inhibition
Key: -5.09

Exercise: # input compound: COc1cc(-c2nc3n(n2)C(c2ccncc2)C(C(N)=O)=C(C)N3)cc(OC)c1OC (stereo not drawn) ; wanted: its inhibition
Key: -5.67
